- target-or-system: T1, Radixin FERM domain (human, UniProt P35241 5-295)
- T1 construct: also called RDX
- T1 sequence (P35241 5-295): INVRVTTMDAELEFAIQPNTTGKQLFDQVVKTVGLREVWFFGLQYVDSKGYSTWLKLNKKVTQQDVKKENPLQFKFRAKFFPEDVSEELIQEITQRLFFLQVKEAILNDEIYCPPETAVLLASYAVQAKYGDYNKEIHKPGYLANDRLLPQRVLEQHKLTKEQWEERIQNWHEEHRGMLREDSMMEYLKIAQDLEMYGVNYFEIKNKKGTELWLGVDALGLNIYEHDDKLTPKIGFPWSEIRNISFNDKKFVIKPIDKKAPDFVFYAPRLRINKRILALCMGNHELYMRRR
- stated-conditions: both partners purified
endpoint-label: pIC50
Scale: negative log10 of molar concentration, which is what pIC50 denotes.

Specify reported pIC50 for the binder shown: VETSNSFDVLKSEDAQY [NSP3 peptide 2019-2034 (Sars-CoV2)]
2.82
